# credit: PubChem BioAssay AID2060899

System: 565726-208-R1-J5-PDC complex spheroids, growth inhibition;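 further: spheroids exposed to compounds for seven days before readout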
Protocol: Anticancer human tumor 565726-208-R1-J5-PDC patient-derived pancreatic adenocarcinoma cell line growth inhibition [RAS]
Recorded Conditions: curve of first compound; second compound 0.003 µM
Measured IC50 accompanies every entry in the list below.

• CC(Nc1ccc2c(c1)OCCn1cc(N3C(=O)OCC3C(F)F)nc1-2)C(N)=O (configuration not stated) + CCn1c(-c2cc(N3CCN(C)CC3)cnc2C(C)OC)c2c3cc(ccc31)-c1csc(n1)CC(NC(=O)C1CC1C)C(=O)N1CCCC(N1)C(=O)OCC(C)(C)C2 = < 31.6 nM
• C=CC(=O)Nc1cc(Nc2nccc(-c3cn(C)c4ccccc34)n2)c(OC)cc1N(C)CCN(C)C + CCn1c(-c2cc(N3CCN(C)CC3)cnc2C(C)OC)c2c3cc(ccc31)-c1csc(n1)CC(NC(=O)C1CC1C)C(=O)N1CCCC(N1)C(=O)OCC(C)(C)C2 = 11 nM
• Nc1ccn(C2OC(CO)C(O)C2(F)F)c(=O)n1 (configuration not stated) + CCn1c(-c2cccnc2C(C)OC)c2c3cc(ccc31)N1CCOC(CC(NC(=O)C(C(C)C)N(C)C(=O)C3(F)CCN(C(=O)C#CC(C)(C)N(C)C)CC3)C(=O)N3CCCC(N3)C(=O)OCC(C)(C)C2)C1 = 77.2 nM
• CC(Nc1ccc2c(c1)OCCn1cc(N3C(=O)OCC3C(F)F)nc1-2)C(N)=O (configuration not stated) + CCn1c(-c2cccnc2C(C)OC)c2c3cc(ccc31)N1CCOC(CC(NC(=O)C(C(C)C)N(C)C(=O)C3(F)CCN(C(=O)C#CC(C)(C)N(C)C)CC3)C(=O)N3CCCC(N3)C(=O)OCC(C)(C)C2)C1 = > 10000 nM
• CC(C)n1nc(-c2ccc3oc(N)nc3c2)c2c(N)ncnc21 + CCn1c(-c2cc(N3CCN(C)CC3)cnc2C(C)OC)c2c3cc(ccc31)-c1csc(n1)CC(NC(=O)C1CC1C)C(=O)N1CCCC(N1)C(=O)OCC(C)(C)C2 = < 0.316 nM

Give the value of IC50 reported for the following: CC1(C)CCC(Nc2ncc(C(F)(F)F)c(-c3c[nH]c4c(P(C)(C)=O)c(C#N)ccc34)n2)CN1 (configuration not stated) + CCn1c(-c2cc(N3CCN(C)CC3)cnc2C(C)OC)c2c3cc(ccc31)-c1csc(n1)CC(NC(=O)C1CC1C)C(=O)N1CCCC(N1)C(=O)OCC(C)(C)C2
< 0.949 nM

Give the value of IC50 reported for the following: O=C(c1ccc(F)c(F)c1Nc1ccc(I)cc1F)N1CC(O)([C@@H]2CCCCN2)C1 + CCn1c(-c2cc(N3CCN(C)CC3)cnc2C(C)OC)c2c3cc(ccc31)-c1csc(n1)CC(NC(=O)C1CC1C)C(=O)N1CCCC(N1)C(=O)OCC(C)(C)C2
10.2 nM

Give the value of IC50 reported for the following: CCc1c2c(nc3ccc(O)cc13)-c1cc3c(c(=O)n1C2)COC(=O)[C@]3(O)CC + CCn1c(-c2cc(N3CCN(C)CC3)cnc2C(C)OC)c2c3cc(ccc31)-c1csc(n1)CC(NC(=O)C1CC1C)C(=O)N1CCCC(N1)C(=O)OCC(C)(C)C2
< 0.949 nM

Give the value of IC50 reported for the following: Cc1nc(N2CCC3(CC2)COC(C)C3N)c(CO)nc1Sc1ccnc(N)c1Cl (configuration not stated) + CCn1c(-c2cccnc2C(C)OC)c2c3cc(ccc31)N1CCOC(CC(NC(=O)C(C(C)C)N(C)C(=O)C3(F)CCN(C(=O)C#CC(C)(C)N(C)C)CC3)C(=O)N3CCCC(N3)C(=O)OCC(C)(C)C2)C1
> 10000 nM

Give the value of IC50 reported for the following: Cc1nc(N2CCC3(CC2)COC(C)C3N)c(CO)nc1Sc1ccnc(N)c1Cl (configuration not stated) + CCn1c(-c2cc(N3CCN(C)CC3)cnc2C(C)OC)c2c3cc(ccc31)-c1csc(n1)CC(NC(=O)C1CC1C)C(=O)N1CCCC(N1)C(=O)OCC(C)(C)C2
38.7 nM

Give the value of IC50 reported for the following: NC1c2ccccc2OC12CCN(c1cnc3c(N4CCCc5ncccc54)n[nH]c3n1)CC2 (configuration not stated) + CCn1c(-c2cc(N3CCN(C)CC3)cnc2C(C)OC)c2c3cc(ccc31)-c1csc(n1)CC(NC(=O)C1CC1C)C(=O)N1CCCC(N1)C(=O)OCC(C)(C)C2
< 31.6 nM

Give the value of IC50 reported for the following: C[C@@H](NC(=O)c1ncnc(N)c1Cl)c1ncc(C(=O)Nc2cc(C(F)(F)F)c(Cl)cn2)s1 + CCn1c(-c2cc(N3CCN(C)CC3)cnc2C(C)OC)c2c3cc(ccc31)-c1csc(n1)CC(NC(=O)C1CC1C)C(=O)N1CCCC(N1)C(=O)OCC(C)(C)C2
> 10000 nM
